molecular target: NS3/NS4 complexes (Hepatitis C virus genotype 1a, UniProt P27958); assay: NS3/NS4 inhibition activity (IC50); format: biochemical; conditions: Table 3, read-out: IC50
Sequence (P27958 1027-1657): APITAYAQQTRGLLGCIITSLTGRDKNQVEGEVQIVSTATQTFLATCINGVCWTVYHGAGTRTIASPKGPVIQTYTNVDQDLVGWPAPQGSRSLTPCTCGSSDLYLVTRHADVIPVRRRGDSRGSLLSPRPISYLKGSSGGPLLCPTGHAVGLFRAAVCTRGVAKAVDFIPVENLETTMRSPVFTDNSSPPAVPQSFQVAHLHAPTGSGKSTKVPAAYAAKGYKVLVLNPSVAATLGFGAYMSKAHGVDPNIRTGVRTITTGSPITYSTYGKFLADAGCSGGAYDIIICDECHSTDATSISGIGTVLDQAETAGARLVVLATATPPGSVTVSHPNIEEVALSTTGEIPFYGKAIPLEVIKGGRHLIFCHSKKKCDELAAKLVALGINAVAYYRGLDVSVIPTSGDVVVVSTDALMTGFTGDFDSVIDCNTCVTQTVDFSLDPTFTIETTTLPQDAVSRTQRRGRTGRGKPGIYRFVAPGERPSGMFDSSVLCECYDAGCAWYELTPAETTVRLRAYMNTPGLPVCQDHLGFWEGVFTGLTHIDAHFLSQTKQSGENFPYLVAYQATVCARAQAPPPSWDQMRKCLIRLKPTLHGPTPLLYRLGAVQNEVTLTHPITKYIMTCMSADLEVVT
Sequence (P27958 1658-1711): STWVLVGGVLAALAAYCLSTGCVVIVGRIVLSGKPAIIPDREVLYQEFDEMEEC
readout.kind: IC50

Field IC50 (entry "CC(=O)O[C@@H]1C[C@H]2C(=O)N[C@]3(C(=O)NS(=O)(=O)CC(=O)Nc4ccccc4)C[C@H]3/C=C\CCCCC[C@H](NC(=O)OC(C)(C)C)C(=O)N2C1" ) reads > 100 nM

Form field IC50, entry "Cc1cc(F)cc(N[C@H]2CCCCC/C=C\[C@@H]3C[C@@]3(C(=O)NS(=O)(=O)C3(C)CC3)NC(=O)[C@@H]3C[C@@H](OC(=O)N4Cc5cccc(F)c5C4)CN3C2=O)c1" : < 10 nM

Documented IC50 of "CC(C)(C)OC(=O)N[C@H]1CCCCC/C=C\[C@@H]2C[C@@]2(C(=O)O)NC(=O)[C@@H]2C[C@@H](Oc3nc4ccc(Cl)cc4o3)CN2C1=O" : > 100 nM

Sample "CC(C)(C)OC(=O)N[C@H]1CCCCC/C=C\[C@@H]2C[C@@]2(C(=O)NS(=O)(=O)C2(C)CC2)NC(=O)[C@@H]2C[C@@H](Oc3nc4ccccc4s3)CN2C1=O" ; IC50 observed: < 10 nM

Reported IC50 for "COc1ccc2nc(O[C@@H]3C[C@H]4C(=O)N[C@]5(C(=O)NOc6ccccc6)C[C@H]5/C=C\CCCCC[C@H](NC(=O)OC(C)(C)C)C(=O)N4C3)sc2c1" was > 100 nM

"CC(C)(C)OC(=O)N[C@H]1CCCCC/C=C\[C@@H]2C[C@@]2(C(=O)NS(=O)(=O)C2CC2)NC(=O)[C@@H]2C[C@@H](Oc3nc4ccc(Cl)cc4o3)CN2C1=O" yielded IC50 of < 10 nM

Entry "CC(C)(C)OC(=O)N[C@H]1CCCCC/C=C\[C@@H]2C[C@@]2(C(=O)O)NC(=O)[C@@H]2C[C@@H](Oc3nc4cc(F)ccc4o3)CN2C1=O" , IC50 reported as 10 to 100 nM

According to the records, this compound "CC(C)(C)OC(=O)N[C@H]1CCCCC/C=C\[C@@H]2C[C@@]2(C(=O)NOc2ccccc2)NC(=O)[C@@H]2C[C@@H](Oc3nc4ccc(Br)cc4s3)CN2C1=O" displays IC50 of > 100 nM

The compound "Cc1ccc2c(c1)nc(O[C@@H]1C[C@H]3C(=O)N[C@]4(C(=O)NS(=O)(=O)N(C)C)C[C@H]4/C=C\CCCCC[C@H](NC(=O)OC(C)(C)C)C(=O)N3C1)n2C(C)C" showed IC50 equal to < 10 nM

Short answer for "CC(=O)Nc1ccc(N[C@H]2CCCCC/C=C\[C@@H]3C[C@@]3(C(=O)NS(=O)(=O)C3(C)CC3)NC(=O)[C@@H]3C[C@@H](OC(=O)N4Cc5cccc(F)c5C4)CN3C2=O)cc1" : IC50 was < 10 nM

###

test system: hepatitis C replicon; experiment: hepatitis C replicon EC50; format: cell-based; conditions: Hepatitis C virus; Table 3; hepatitis C replicon; read-out: EC50
Would you kindly list EC50 for each of these compounds?

Lab book: EC50 of CC(C)n1c(O[C@@H]2C[C@H]3C(=O)N[C@]4(C(=O)NS(=O)(=O)C5CC5)C[C@H]4/C=C\CCCCC[C@H](NC(=O)OC(C)(C)C)C(=O)N3C2)nc2ccccc21 [Compound 1142] noted as < 10 nM

The compound identified as CC1(S(=O)(=O)NC(=O)[C@@]23C[C@H]2/C=C\CCCCC[C@H](Nc2cc(F)c(F)c(F)c2)C(=O)N2C[C@H](OC(=O)N4Cc5cccc(F)c5C4)C[C@H]2C(=O)N3)CC1 [Compound 1108] registered its EC50 at 10 to 100 nM

Value of measured EC50 for the entry CC(=O)O[C@@H]1C[C@H]2C(=O)N[C@]3(C(=O)N4CCC[C@H]4C(=O)NCc4ccccc4)C[C@H]3/C=C\CCCCC[C@H](NC(=O)OC(C)(C)C)C(=O)N2C1 [Compound 1061] : > 100 nM

Please fill in: EC50 reported for CC1(S(=O)(=O)NC(=O)[C@@]23C[C@H]2/C=C\CCCCC[C@H](Nc2ccc(OC(F)(F)F)cc2)C(=O)N2C[C@H](OC(=O)N4Cc5cccc(F)c5C4)C[C@H]2C(=O)N3)CC1 [Compound 1119] = 10 to 100 nM

Note to self: EC50 recorded for CC(C)(C)OC(=O)N[C@H]1CCCCC/C=C\[C@@H]2C[C@@]2(C(=O)NS(=O)(=O)c2ccccc2OCC(N)=O)NC(=O)[C@@H]2C[C@@H](OC(=O)N3Cc4cccc(F)c4C3)CN2C1=O [Compound 1083] was > 100 nM

###

tested on: hepatitis C replicon; test: hepatitis C replicon EC50; type: cell-based; conditions: Hepatitis C virus; Table 2; hepatitis C replicon; read-out: EC50
Exercise: state measured EC50 for each of the molecules provided.

Noted for COc1ccc2c(O[C@@H]3C[C@H]4C(=O)N[C@]5(C(=O)NS(=O)(=O)C6(C)CC6)C[C@H]5/C=C\CCCCC[C@H](Nc5nc6ccccc6o5)C(=O)N4C3)cc(-c3nc(C(C)C)cs3)nc2c1C [Compound 379] : its EC50 reads < 0.01 µM

molecule CC1(S(=O)(=O)NC(=O)[C@@]23C[C@H]2/C=C\CCCCC[C@H](Nc2cc(F)cc(C(F)(F)F)c2)C(=O)N2C[C@H](Oc4nc5ccc(Br)cc5s4)C[C@H]2C(=O)N3)CC1 [Compound 352] , EC50 observed: 0.01 to 0.075 µM

Data point: COc1ccc2c(O[C@@H]3C[C@H]4C(=O)N[C@]5(C(=O)NS(=O)(=O)C6CC6)C[C@H]5/C=C\CCCCC[C@H](Nc5ccc(C(F)(F)F)cc5)C(=O)N4C3)cc(-c3nc(C(C)C)cs3)nc2c1C [Compound 446] ; EC50 = < 0.01 µM

According to the records, this molecule CC(C)n1c(O[C@@H]2C[C@H]3C(=O)N[C@]4(C(=O)NS(=O)(=O)C5(C)CC5)C[C@H]4/C=C\CCCCC[C@H](Nc4ccccc4)C(=O)N3C2)nc2c(F)cccc21 [Compound 469] displays EC50 of < 0.01 µM

// field: EC50; key: COc1ccc2c(O[C@@H]3C[C@H]4C(=O)N[C@]5(C(=O)NS(=O)(=O)C6(C)CC6)C[C@H]5/C=C\CCCCC[C@H](Nc5cc(C)cc(F)c5)C(=O)N4C3)cc(-c3nc(C(C)C)cs3)nc2c1C [Compound 482] ; value = < 0.01 µM

###

target: NS3/NS4 complexes (Hepatitis C virus genotype 1a); assay: NS3/NS4 inhibition activity (IC50); type: biochemical; conditions: Table 2, read-out: IC50
readout.kind: IC50

Briefly, IC50 measured for "COc1ccc2c(O[C@@H]3C[C@H]4C(=O)N[C@]5(C(=O)NS(=O)(=O)C6(C)CC6)C[C@H]5/C=C\CCCCC[C@H](Nc5cccc(F)c5)C(=O)N4C3)cc(-c3ccccc3)nc2c1" : < 10 nM

Short answer for "Cc1ccc2nc(O[C@@H]3C[C@H]4C(=O)N[C@]5(C(=O)NS(=O)(=O)C6(C)CC6)C[C@H]5/C=C\CCCCC[C@H](Nc5ccccc5)C(=O)N4C3)n(C(C)C)c2c1" : IC50 was < 10 nM

// IC50 lookup, compound = "CC(C)n1c(O[C@@H]2C[C@H]3C(=O)N[C@]4(C(=O)NS(=O)(=O)C5(C)CC5)C[C@H]4/C=C\CCCCC[C@H](Nc4ccccc4)C(=O)N3C2)nc2cccc(F)c21" , result: < 10 nM

###

Would you kindly list EC50 for each of these compounds?
system: hepatitis C replicon; experiment: hepatitis C replicon EC50; format: cell-based; settings: Hepatitis C virus; Table 2; hepatitis C replicon; read-out: EC50

Form field EC50, entry CC1(S(=O)(=O)NC(=O)[C@@]23C[C@H]2/C=C\CCCCC[C@H](Nc2ccccc2)C(=O)N2C[C@H](Oc4nccc5ccccc45)C[C@H]2C(=O)N3)CC1 [Compound 221] : 10 to 75 nM

Looking up CCn1c(O[C@@H]2C[C@H]3C(=O)N[C@]4(C(=O)NS(=O)(=O)C5(C)CC5)C[C@H]4CCCCCCC[C@H](Nc4cc(F)cc(C(F)(F)F)c4)C(=O)N3C2)nc2ccccc21 [Compound 466] , I found its EC50 recorded as 75 to 500 nM

Looking up COc1ccc2c(O[C@@H]3C[C@H]4C(=O)N[C@]5(C(=O)NS(=O)(=O)C6(C)CC6)C[C@H]5/C=C\CCCCC[C@H](Nc5cc(F)cc(C(F)(F)F)c5)C(=O)N4C3)cc(-c3nc(C(C)C)cs3)nc2c1C [Compound 358] , I see its EC50 listed as 10 to 75 nM

Record CC1(S(=O)(=O)NC(=O)[C@@]23C[C@H]2/C=C\CCCCC[C@H](Nc2cc(F)cc(F)c2)C(=O)N2C[C@H](Oc4nc5ccccc5s4)C[C@H]2C(=O)N3)CC1 [Compound 328] , field EC50: 10 to 75 nM

Data point: CC1(S(=O)(=O)NC(=O)[C@@]23C[C@H]2/C=C\CCCCC[C@H](Nc2cccc(C(F)(F)F)c2)C(=O)N2C[C@H](Oc4nc5ccccc5s4)C[C@H]2C(=O)N3)CC1 [Compound 222] ; EC50 = 75 to 500 nM

The compound listed as COc1ccc2c(O[C@@H]3C[C@H]4C(=O)N[C@]5(C(=O)NS(=O)(=O)C6(C)CC6)C[C@H]5/C=C\CCCCC[C@H](Nc5cc(F)cc(C(F)(F)F)c5)C(=O)N4C3)cc(-c3ccccc3)nc2c1 [Compound 355] shows EC50 equal to < 10 nM

EC50 for COc1cccc(N[C@H]2CCCCC/C=C\[C@@H]3C[C@@]3(C(=O)NS(=O)(=O)C3(C)CC3)NC(=O)[C@@H]3C[C@@H](Oc4cc(-c5nc(C(C)C)cs5)nc5c(C)c(OC)ccc45)CN3C2=O)c1 [Compound 478] is 75 to 500 nM

Value of measured EC50 for the entry CCn1c(O[C@@H]2C[C@H]3C(=O)N[C@]4(C(=O)O)C[C@H]4/C=C\CCCCC[C@H](Nc4cc(F)cc(C(F)(F)F)c4)C(=O)N3C2)nc2ccccc21 [Compound 318] : > 500 nM

Field EC50 (entry CC1(S(=O)(=O)NC(=O)[C@@]23C[C@H]2/C=C\CCCCC[C@H](Nc2ccc(-c4ccccc4)cc2)C(=O)N2C[C@H](Oc4nc5ccccc5s4)C[C@H]2C(=O)N3)CC1 [Compound 326] ) reads > 500 nM

response.value for COc1ccc2c(O[C@@H]3C[C@H]4C(=O)N[C@]5(C(=O)NS(=O)(=O)C6(C)CC6)C[C@H]5/C=C\CCCCC[C@H](Nc5ccc(C#N)cc5)C(=O)N4C3)cc(-c3nc(C(C)C)cs3)nc2c1C [Compound 481] (field: EC50) = < 10 nM

Entry COc1ccc2c(O[C@@H]3C[C@H]4C(=O)N[C@]5(C(=O)NS(=O)(=O)C6CC6)C[C@H]5/C=C\CCCCC[C@H](Nc5cc(F)cc(C(F)(F)F)c5)C(=O)N4C3)cc(-c3nc(C(C)C)cs3)nc2c1C [Compound 439] ; EC50 = < 10 nM

Per the records, this compound ( COc1ccc2c(O[C@@H]3C[C@H]4C(=O)N[C@]5(C(=O)NS(=O)(=O)C6(C)CC6)C[C@H]5/C=C\CCCCC[C@H](Nc5ccc(NC(C)=O)cc5)C(=O)N4C3)cc(-c3nc(C(C)C)cs3)nc2c1C [Compound 485] ) has EC50 equal to 10 to 75 nM

# compound COc1ccc2c(O[C@@H]3C[C@H]4C(=O)N[C@]5(C(=O)NS(=O)(=O)C6(C)CC6)C[C@H]5/C=C\CCCCC[C@H](Nc5cc(F)c(F)c(F)c5)C(=O)N4C3)cc(-c3nc(C(C)C)cs3)nc2c1C [Compound 480] ; its EC50 = 10 to 75 nM

According to the records, this compound CC1(S(=O)(=O)NC(=O)[C@@]23C[C@H]2/C=C\CCCCC[C@H](Nc2ccccc2)C(=O)N2C[C@H](Oc4nc5ccc(Cl)cc5s4)C[C@H]2C(=O)N3)CC1 [Compound 217] displays EC50 of 75 to 500 nM

Looking up O=C1N[C@]2(C(=O)O)C[C@H]2/C=C\CCCCC[C@H](Nc2cccc(C(F)(F)F)c2)C(=O)N2C[C@H](Oc3nc4ccccc4s3)C[C@@H]12 [Compound 110] , I see its EC50 listed as > 500 nM

Memo: CC1(S(=O)(=O)NC(=O)[C@@]23C[C@H]2/C=C\CCCCC[C@H](Nc2cccc(F)c2)C(=O)N2C[C@H](Oc4nc5ccccc5s4)C[C@H]2C(=O)N3)CC1 [Compound 235] , reported EC50: 10 to 75 nM

Short answer for CC(C)n1c(O[C@@H]2C[C@H]3C(=O)N[C@]4(C(=O)NS(=O)(=O)C5(C)CC5)C[C@H]4/C=C\CCCCC[C@H](Nc4ccccc4)C(=O)N3C2)nc2cccc(F)c21 [Compound 467] : EC50 was 10 to 75 nM

// sample COc1ccc2c(O[C@@H]3C[C@H]4C(=O)N[C@]5(C(=O)NS(=O)(=O)C6(C)CC6)C[C@H]5/C=C\CCCCC[C@H](Nc5cccc(C(F)(F)F)c5)C(=O)N4C3)cc(-c3ccccc3)nc2c1 [Compound 229] , its EC50 was < 10 nM

GET /value?item= CS(=O)(=O)N(Cc1ccccc1)[C@H]1CCCCC/C=C\[C@@H]2C[C@@]2(C(=O)NS(=O)(=O)C2CC2)NC(=O)[C@@H]2C[C@@H](Oc3nc4ccccc4s3)CN2C1=O [Compound 317] &field=EC50 returns > 500 nM
